Molecular target: Nitric oxide synthase, inducible (Mus musculus)
Test: Inhibition of mouse iNOS assessed as nitric oxide-mediated oxidation of haemoglobin-A0 at 300 uM using L-arginine by haemoglobin capture assay
readout_type: inhibition (%)
Field format: number, assumed %, no unit text.

The cases that follow already have their inhibition on record.
* N=C(N)NC[C@@H]1C[C@@H]1[C@H](N)C(=O)O | 22
* N=C(N)NC[C@H]1C[C@@H]1[C@@H](N)C(=O)O | 19
* N=C(N)NC[C@H]1C[C@H]1[C@@H](N)C(=O)O | 14

Data request: Entry N=C(N)NC[C@@H]1C[C@@H]1[C@@H](N)C(=O)O : reported inhibition = ?
Data returned: 24

Data request: Quick one: inhibition for N=C(N)NC[C@@H]1C[C@H]1[C@H](N)C(=O)O ?
Data returned: 26

Data request: What value of measured inhibition is listed for N=C(N)NC[C@@H]1C[C@H]1[C@@H](N)C(=O)O ?
Data returned: 19

====

# inhibition per entry
Target: Nitric oxide synthase 3 (Bos taurus) (UniProt P29473)
Sequence (P29473 whole entry): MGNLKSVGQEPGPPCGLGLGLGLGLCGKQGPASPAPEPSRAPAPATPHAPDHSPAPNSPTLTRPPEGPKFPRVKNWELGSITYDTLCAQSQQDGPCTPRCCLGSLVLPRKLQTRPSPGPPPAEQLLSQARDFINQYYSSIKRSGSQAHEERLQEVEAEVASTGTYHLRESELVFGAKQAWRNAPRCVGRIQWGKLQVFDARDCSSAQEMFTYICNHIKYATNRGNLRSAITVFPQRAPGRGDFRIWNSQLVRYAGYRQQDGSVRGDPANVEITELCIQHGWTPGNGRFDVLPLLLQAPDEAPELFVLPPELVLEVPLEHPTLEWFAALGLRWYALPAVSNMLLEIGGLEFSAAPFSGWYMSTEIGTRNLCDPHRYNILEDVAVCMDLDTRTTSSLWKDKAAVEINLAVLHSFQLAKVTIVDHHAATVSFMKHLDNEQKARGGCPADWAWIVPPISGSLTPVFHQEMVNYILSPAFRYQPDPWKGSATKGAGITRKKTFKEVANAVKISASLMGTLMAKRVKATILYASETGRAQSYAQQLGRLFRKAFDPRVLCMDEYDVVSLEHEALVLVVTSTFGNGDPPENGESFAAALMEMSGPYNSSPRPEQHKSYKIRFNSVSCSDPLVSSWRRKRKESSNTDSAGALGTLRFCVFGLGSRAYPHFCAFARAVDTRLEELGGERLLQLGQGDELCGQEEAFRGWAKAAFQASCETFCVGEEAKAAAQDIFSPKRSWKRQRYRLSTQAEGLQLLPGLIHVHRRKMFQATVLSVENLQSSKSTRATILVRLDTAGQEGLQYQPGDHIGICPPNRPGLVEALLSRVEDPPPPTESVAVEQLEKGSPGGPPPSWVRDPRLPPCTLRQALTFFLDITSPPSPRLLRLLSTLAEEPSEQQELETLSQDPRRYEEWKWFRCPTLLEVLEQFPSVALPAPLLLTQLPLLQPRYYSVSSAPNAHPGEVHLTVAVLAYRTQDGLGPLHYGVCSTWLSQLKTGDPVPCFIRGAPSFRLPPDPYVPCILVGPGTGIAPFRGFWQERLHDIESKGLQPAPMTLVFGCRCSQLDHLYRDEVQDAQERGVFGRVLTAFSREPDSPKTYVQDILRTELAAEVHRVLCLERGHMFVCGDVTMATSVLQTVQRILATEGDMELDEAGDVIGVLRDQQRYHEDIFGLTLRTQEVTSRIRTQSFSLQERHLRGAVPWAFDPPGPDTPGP
Assay: Inhibition of bovine eNOS assessed as nitric oxide-mediated oxidation of haemoglobin-A0 at 300 uM using L-arginine by haemoglobin capture assay
Unit % implied. Number only.

Record excerpt, results attached:
• N=C(N)NC[C@H]1C[C@H]1[C@@H](N)C(=O)O = 27
• N=C(N)NC[C@@H]1C[C@H]1[C@H](N)C(=O)O = 45
• N=C(N)NC[C@@H]1C[C@@H]1[C@@H](N)C(=O)O = 4

Data request: Record N=C(N)NC[C@@H]1C[C@@H]1[C@H](N)C(=O)O : what is its inhibition with Nitric oxide synthase 3 (Bos taurus) (UniProt P29473)?
Data returned: 16

Data request: Give inhibition (Nitric oxide synthase 3 (Bos taurus) (UniProt P29473)) of the following molecule: N=C(N)NC[C@H]1C[C@@H]1[C@@H](N)C(=O)O
Data returned: 23

Data request: Request - read-out inhibition | tested on Nitric oxide synthase 3 (Bos taurus) (UniProt P29473) | molecule N=C(N)NC[C@@H]1C[C@H]1[C@@H](N)C(=O)O
Data returned: 4

====

Target: Nitric oxide synthase 1 (Rattus norvegicus) (UniProt P29476)
Sequence (P29476 whole entry): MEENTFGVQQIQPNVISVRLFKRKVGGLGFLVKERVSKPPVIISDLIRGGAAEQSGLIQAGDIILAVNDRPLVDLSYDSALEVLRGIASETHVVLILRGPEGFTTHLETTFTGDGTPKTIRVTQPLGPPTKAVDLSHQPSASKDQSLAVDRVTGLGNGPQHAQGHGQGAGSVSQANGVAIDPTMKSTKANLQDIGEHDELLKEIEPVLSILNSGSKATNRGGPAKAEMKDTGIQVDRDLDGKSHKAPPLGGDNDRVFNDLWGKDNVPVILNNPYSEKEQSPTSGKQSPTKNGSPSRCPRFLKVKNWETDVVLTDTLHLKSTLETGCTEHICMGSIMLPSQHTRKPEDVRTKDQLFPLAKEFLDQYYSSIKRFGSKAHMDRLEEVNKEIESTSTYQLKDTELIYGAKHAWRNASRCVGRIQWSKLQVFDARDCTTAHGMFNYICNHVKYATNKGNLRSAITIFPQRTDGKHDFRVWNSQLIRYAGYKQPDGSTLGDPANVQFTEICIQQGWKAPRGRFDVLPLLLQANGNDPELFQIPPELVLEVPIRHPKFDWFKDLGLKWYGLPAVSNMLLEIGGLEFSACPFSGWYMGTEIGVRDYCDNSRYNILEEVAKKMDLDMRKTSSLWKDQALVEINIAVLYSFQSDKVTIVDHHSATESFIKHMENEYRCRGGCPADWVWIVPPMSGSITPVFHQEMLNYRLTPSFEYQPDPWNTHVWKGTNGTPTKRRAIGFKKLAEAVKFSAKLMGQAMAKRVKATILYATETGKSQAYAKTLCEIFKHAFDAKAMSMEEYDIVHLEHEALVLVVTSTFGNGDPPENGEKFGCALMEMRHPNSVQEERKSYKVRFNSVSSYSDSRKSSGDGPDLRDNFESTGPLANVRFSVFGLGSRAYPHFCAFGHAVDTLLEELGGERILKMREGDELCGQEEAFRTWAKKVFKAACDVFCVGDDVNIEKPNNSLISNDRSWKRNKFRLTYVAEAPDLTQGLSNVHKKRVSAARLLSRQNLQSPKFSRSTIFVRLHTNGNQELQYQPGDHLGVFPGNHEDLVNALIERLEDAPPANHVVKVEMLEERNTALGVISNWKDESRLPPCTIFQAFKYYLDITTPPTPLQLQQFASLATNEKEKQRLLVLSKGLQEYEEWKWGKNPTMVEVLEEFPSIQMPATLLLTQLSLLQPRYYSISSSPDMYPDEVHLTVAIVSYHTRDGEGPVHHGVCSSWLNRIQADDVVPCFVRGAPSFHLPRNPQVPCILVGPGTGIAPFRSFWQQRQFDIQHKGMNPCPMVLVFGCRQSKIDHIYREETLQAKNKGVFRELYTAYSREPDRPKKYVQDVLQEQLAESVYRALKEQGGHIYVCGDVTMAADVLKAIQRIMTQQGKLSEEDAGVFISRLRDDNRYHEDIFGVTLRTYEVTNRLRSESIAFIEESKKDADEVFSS
Experiment: Inhibition of rat nNOS assessed as nitric oxide-mediated oxidation of haemoglobin-A0 at 300 uM using L-arginine by haemoglobin capture assay
readout_type: inhibition (%)
Number in %, nothing else.

- N=C(N)NC[C@@H]1C[C@H]1[C@@H](N)C(=O)O: 13
- N=C(N)NC[C@@H]1C[C@H]1[C@H](N)C(=O)O: 16
- N=C(N)NC[C@@H]1C[C@@H]1[C@H](N)C(=O)O: 30

Data request: Tell me the measured inhibition of N=C(N)NC[C@@H]1C[C@@H]1[C@@H](N)C(=O)O , please.
Data returned: 10

Data request: Return reported inhibition; argument: N=C(N)NC[C@H]1C[C@@H]1[C@@H](N)C(=O)O
Data returned: 5

Data request: Reported inhibition for N=C(N)NC[C@H]1C[C@H]1[C@@H](N)C(=O)O : what is it?
Data returned: 30
